Target: T1, hPRLR.mmh (soluble monomeric human PRLR) (human)
T1 construct: called soluble monomeric PRLR protein
T1 chain: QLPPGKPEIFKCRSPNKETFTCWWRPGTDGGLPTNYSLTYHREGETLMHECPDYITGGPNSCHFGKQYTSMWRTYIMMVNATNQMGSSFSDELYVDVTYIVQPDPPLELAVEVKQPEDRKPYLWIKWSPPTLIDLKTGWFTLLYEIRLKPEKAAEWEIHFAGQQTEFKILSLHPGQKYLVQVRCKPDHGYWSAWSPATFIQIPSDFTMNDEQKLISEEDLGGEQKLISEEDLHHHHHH
Assay: SPR Biacore, 25 C, mAb capture
Experimental: Measurements were conducted on a T200 Biacore instrument. Kinetic association (kₐ) and dissociation (kd) rate constants were determined by processing and fitting the data to a 1:1 binding model using Scrubber 2.0 curve fitting software.
endpointName: T½ (min)
Use min as the unit, but write only the number.

Record H1H6765P (antibody, human IgG1, V domains shown, Human IgG1 Fc (H1H)) VH: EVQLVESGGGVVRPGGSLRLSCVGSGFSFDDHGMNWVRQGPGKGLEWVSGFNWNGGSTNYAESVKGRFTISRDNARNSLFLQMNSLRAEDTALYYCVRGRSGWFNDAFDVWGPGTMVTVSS VL: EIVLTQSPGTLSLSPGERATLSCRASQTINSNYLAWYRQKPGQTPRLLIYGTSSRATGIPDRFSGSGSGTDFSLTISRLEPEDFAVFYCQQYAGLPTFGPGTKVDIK , field T½: 102

Field T½ (entry H1H6797P (antibody, human IgG1, V domains shown, Human IgG1 Fc (H1H)) VH: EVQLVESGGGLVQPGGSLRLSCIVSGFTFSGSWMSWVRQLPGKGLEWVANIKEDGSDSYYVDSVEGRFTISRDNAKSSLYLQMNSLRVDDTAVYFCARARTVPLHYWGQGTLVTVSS VL: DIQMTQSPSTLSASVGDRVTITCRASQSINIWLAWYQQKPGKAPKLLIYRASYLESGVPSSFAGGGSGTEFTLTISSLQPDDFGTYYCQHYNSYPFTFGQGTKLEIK ) reads 6

H1H6966N (antibody, human IgG1, V domains shown, Tested with human IgG1 Fc (H1H); also called H2M6966N) VH: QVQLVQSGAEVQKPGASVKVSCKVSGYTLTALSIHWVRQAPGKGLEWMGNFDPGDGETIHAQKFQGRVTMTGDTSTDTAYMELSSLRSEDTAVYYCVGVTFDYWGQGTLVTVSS VL: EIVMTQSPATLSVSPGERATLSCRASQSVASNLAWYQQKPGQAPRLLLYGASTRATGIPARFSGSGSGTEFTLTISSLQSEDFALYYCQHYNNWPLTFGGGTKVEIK yielded T½ of 44.9

Data provenance: patent US20180185504A1
